Reported melting point values are given for each entry in this list.
RESULT TYPE: melting point

>>> print(df.to_string())
                                   compound  measured_result
0  CN(c1cccc(C(F)(F)F)c1)c1nc2c(-c3cccc(C(=O)O)c3)cccc2n1C    211 to 212 °C
1  O=c1c2ccc(Cl)cc2[nH]c2c(O)nn(Cc3ccco3)c(=O)c12         > 265 °C
2       CCOC(=O)c1cnc(Nc2ccccc2OCC)[nH]c1=O    220 to 221 °C
3  O=[N+]([O-])c1cccc(/C=C/c2nc(C3CCCC3)cs2)c1      65 to 70 °C
4                      COc1cc2onc(N)c2cc1Br    226 to 227 °C
5  Cc1noc(NS(=O)(=O)c2ccccc2-c2ccc(-c3ncco3)cc2CNC(C)C(F)(F)F)c1C (stereo not given)      60 to 70 °C
6  COc1ccc(Br)c2c1C[C@H](N(Cc1ccccc1)Cc1ccccc1)CC2    100 to 101 °C
7          CCOC(=O)CNc1ncccc1NC(=O)c1ccccc1    115 to 116 °C
8      Clc1cc(OCCOc2ccc3ccccc3c2)cc(Cl)c1Br    140 to 142 °C
9  CCOc1nc2cccc(C(=O)OC)c2n1Cc1ccc(-c2ccccc2C(=O)OC)cc1    112 to 113 °C
